assay: yeast display, Sf9 membrane polyspecificity reagent, FACS + sequencing; frameworks hold sequencing errors

QUERY_SEQUENCE	polyreactivity (PSR sort gate)
QVQLVESGGRLVQAGGSLRLTCASSGRIFRYYAMGWYRQAPGKERQLVAAISSSGGSTYYADSVKGRFTISRDNAKNTVYLQMNSLKPEDTAVYYCAARYHIDTLFYGSRYDYWGQGTQVTVSS	high polyreactivity
QVQLVESGGGLVQAGGSLRLSCAASGRTFARNAMGWYRQAPGKERELVAAITSGGSTNYADSVKGRFTISRDNAKNTVYLQMNSLIPEDTAVYYCAADGAQYYYGRYYYWGQGTQVTVSS	high polyreactivity

----------
experiment: yeast display, Sf9 membrane polyspecificity reagent, FACS + sequencing; frameworks hold sequencing errors
READOUT_KIND: polyreactivity (PSR sort gate)

QUERY_SEQUENCE	READING
QVQLVESGGGLVQAGGSLRLSCAASGSTFDVYAMGWYRQAPGKERELVAAISYIGDNTYYADSVKGRFTISRDNAKNTVYLQMNSLKPEDTAVYYCAAEAEHYSFQDYYVEYDYWGQGTQVTVSS	high polyreactivity
QVQRVESGGGLVQAGGSLRLSCAASGYTFLRYAKGSYRQAPGKERELVAAISRRGGRTYYADSVKGRFTISRDNAKNTVYLQMNSLKPEDTAVYYCAAVNSTQTIGLMDYWGQGTQVTVSS	high polyreactivity
QVQLVESGGGLVQAGGSLRLSCAACGSTFPGNAKGWYRQAPGKERELVAAISSSGGITYYADSVKGRFTISRDNAKNTVYLQMNSLIPEDTAVYYCSWGHGTQVTVSS	low polyreactivity
QVQLVESGGGLVQAGGSLRLSCAASGSTYYANAMGWYRQAPGKEREFVATISSSDGSTYYADSVKGRFTISRDNAMNTVYLQMYSLKPEDTAVYYCNAADYPEAHSTYYYWGQGTLVTVSS	low polyreactivity
QVQLVESGGGLVQAGGSLRLSCAASGFIIVKYAMGWYRQAPGKERELVAAITRGGRTYYADSVKGRFTISRDNAKNTVYLQMNSLKPEDTAVYYCNKARFYDPWLGKYGYKYDYWGQGTQVTVSS	high polyreactivity
QVQLVESGGGLVQAGGSLRLSCAASGLIFIQYAMGWYRQAPGKEREFVAAISWSGTSTHYADSVKGRFTISRDNAKNTVYFQMNSLKPEDTAVYYCAAAKTGRGRGTTGYGYWGQGTLVTVSS	high polyreactivity
QVQLVESGGGLVQAGGSLRLSCAASGSIFPYYAMGWYRQAPGKERELVAAISGSGGSTYYADSVKGRFTISRDNAKNTVYLQLNSLKPVDTAVYYCATADVYVYWYTSTDDYWGQGTQVTVSS	low polyreactivity
QVQLVESGGGLVQAGGSLRLSCAASGGTFARNTMGWYRQAPGKERELVAAITRGGSSTYYADSVKGRFTISRDNAKNTVYLQMNSLKPEDTAVYYCNKSLRWRYPYYGTTGRYDYWGQGTQVTVSS	high polyreactivity
QVQLVESGGGLVQAGGSLRLSCAASGSTFGSYGMGWYRQAPGKEREVVAVITYSGDRTYYADSVKGRFTISRDNAKNTVYLQMNSLKPEDTAVYYCAADRSYRVSEYDYWGQGTQVTVSS	low polyreactivity
QVQHVESGGGLVQAGGSLRLSCAASGSTISNNAMGWYRQAPGKERELVAGINSSGGRTYYADSVKGRFTISRDNAKNTVYLQMNSLKPEDTAVYYCNADNFRRYGYWGQGTQVTVSS	high polyreactivity

Here is the next item to consider.
# input Returns the measured polyreactivity (PSR sort gate) for the input sequence. Input: QDQLVESGGGLVQAGGSLRLSCAASGRIFAGYAMGWYRQAPGKERELVASIRSSGSTYYADSVKGRFTISRDNAKNTVYLQMNSLKPEDTAVYYCAARSGYFRSRFDYWGQCTQVTVSS
# output high polyreactivity

----------
assay: yeast display, Sf9 membrane polyspecificity reagent, FACS + sequencing; frameworks hold sequencing errors
READOUT_KIND: polyreactivity (PSR sort gate)

Check out these entries, answers already filled in.
QUERY_SEQUENCE	polyreactivity (PSR sort gate)
QVQLVESGGGLVQAGGSLRLSCSASGSTFTWYAMGWYRQATGKERELVADISNGGGSTYYADSVKGRFTISRDNEKNTVYLQINSLKPEDTEVYYCAAESIPYYRYDYWGQGTQVTVSS	low polyreactivity
QVQLVESGGGLVQAGGSLRLSCAASGITFRGNAMGWYRQAPGKERELVAAISRRGGNTNYADSVKGRFTISRDNAKNTVYLQMNSLKPEDTAVYYCAADITTYRRGRYEYEYWGQGTQVTVSS	high polyreactivity
QVQLVESGGGLVQAGGSLRLSCAASGFTFNRNAMGWYRQAPGKERELVAAISWSGGSTYYADSVKGRFTISRDNAKYTVYLQMHSLKPEDTAVYYCAQGYRRVYGPFYYWGQGTQVTVSS	low polyreactivity
QVQLVESGGGLVQAGGSLRLSCAASGSTFVNYGMGWYRQAPGKERELVAAITQSGGSTYYADSVKGRFTISRDNAKNTVYLQMNSLKPEDTAVYYCAAEVVRQWHGIGYDYWGQGTQVTVSS	low polyreactivity
QVQVVESGGGLVQAGGSLRLSCAASGSIFVGYAMGWYRQAPGKEREFVAGITARGGSTYYADSVKGRFTISCDNAKNTVYIPMNSQKPEDSAVYYCAADDGSENDYWGQGTQVTVSS	low polyreactivity

# input Returns the measured polyreactivity (PSR sort gate) for the input sequence. Input: QVQLVESGRGLVQAGGSLRLSCAASGRIFLANAMGWSRQAPGKERELVAAISLSGGRTYYADSVKGRFTISRDIAKNTVYLQMNSLKPEDTAFYYCAAEFYPIGYYGGYDYWGPGTQVTVSS
# output low polyreactivity

# input Returns the measured polyreactivity (PSR sort gate) for the input sequence. Input: QVQLVESGGGLVQAGGSLRLSCAASGITFYKNVMGWYRQAPGKERELVAAISSSGGSTYYADSVKGRFTISRDNAKNTVYLQMNSLKPEDTAVYYCAADDPLYTPYEFDYWGQGTQVTVSS
# output low polyreactivity

# input Returns the measured polyreactivity (PSR sort gate) for the input sequence. Input: QVQLVESGGGLVQAGGSLRLSCAASGFTFSSYAMGWYRQAPGKERELVAAITISGGRTYYADSVKGRFTISRDNAKNTVYLQMNSLKPEDTAVYYCAALYVEGQNHYGYWGQGTQVTVSS
# output high polyreactivity

----------
assay: yeast display, Sf9 membrane polyspecificity reagent, FACS + sequencing; frameworks hold sequencing errors
READOUT_KIND: polyreactivity (PSR sort gate)

Check out these entries, answers already filled in.
QUERY_SEQUENCE	polyreactivity (PSR sort gate)
QVHLVESGGGLVQAGGSLRLSCAASGRTFYPFGMGWYRQATGKERELVATITYSGARTYYADTVKGRFTISRDNAKNTVYLQMNILKPEDTAVYYCAAGYYWGIGTGFDYWGQGTQVTVSS	high polyreactivity
QVQLVESGGGLVQAGGSLRVSCAASGCTFVDYAMCWYRQAPGKERELVAGITSGGSTNYADSVKGRFTISRDNAKNTVYLQMNSVKPEDTAVYDCNADPGQDTPGYTRPEYDYWGQGTQVTVSS	low polyreactivity
QVQLQESGGGLVQAGGSLRLSSAASGSIIQYGYMGWYRQAPGKEREFVAGIGGGTSNYADSVKGRFTMSRDNAKNTVYLQMNSLKPEDTAVYYCNTDAGDYYGENYWGQGTQVTVSS	low polyreactivity
QVQLVESGGGLVQAGGSLRLICAASGKTFSDYAMGWYRQAPGKERELVAAISSSGVRTYYADSVKGRFTISRDNAKNTVYLQMNSLKPEDTAVDDCNAGYVRRYYPASGYGYWGQGTHVTVSS	high polyreactivity

# input Returns the measured polyreactivity (PSR sort gate) for the input sequence. Input: QVHLVESGGCLVQARGSLRLSCAASGRTIQLYAMGWYRHPHGKVMELVAAITWSSGRTYYADSVKGRFTISRDNANNTVYLQMNRLKQEDTAVYYCNAPRGGRNTVYYWGQGTQVTVSS
# output high polyreactivity

----------
experiment: yeast display, Sf9 membrane polyspecificity reagent, FACS + sequencing; frameworks hold sequencing errors
READOUT_KIND: polyreactivity (PSR sort gate)

QUERY_SEQUENCE	polyreactivity (PSR sort gate)
QVQLVESGGGLVQAGGSLRLSCAASGSTFLYYAMGWYRQAPGKERQLVAAISGSGGSTYYADSVKGRFTISRDNAKNNVYLQMYSLKPEDTAVYYCNAVARRHGLGPYDYWGQGTQVTVSS	high polyreactivity
QDQLVESGGGLVQAGGSLRLSCSASGFTITHNAMGWYRQAPGKEREFVATISRSGGRTYYADSVKGRFTISRDNAKNTVFFQMNSLKPEDTPVYYCAARTSGYWYSYGSWGQGTQVTVSS	high polyreactivity
QVQLVESGGGLVQAGGSLRLSCAASGLTFGRNAMGWYRQAPCKERDLVAAITFNGGSTYYADSVKGRFTISRDNEKNTVYIQMNSLKPEDTAVYYCAARLWRRTRFDYWGQGTQVTVSS	high polyreactivity
QVQLVESGGGLVQAGGSLRLSCAASGRTFYVNTMGWYRQAPGKEREFVAAITWRDGSTYYADSVKGRFTISRDNAKNTVYLQMNSLKPEDTAVYYCAARNSHDGYYDEYYYWGQGTQVTVSS	low polyreactivity

# input Returns the measured polyreactivity (PSR sort gate) for the input sequence. Input: QVQLVESGGGLVQAGGSLRLSCAASGRTFYDYAMGWYRQAPGKESEFVAAITDRDASTSYADSVKGRFTISRDNAKNTVYLQMNSLKPEDTAVYYCAADQYWYKPYVGELYDYDYWGQGTQVTVSS
# output low polyreactivity

Just for reference, the nanobody polyreactivity screen of Harvey et al. (2022) is where these values come from.
